# Protocol Text: chemical genetic growth profiling, strain panel (AID 1159580);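 also: tested at 20 µM; growth read once vehicle control cultures reached saturation at 30 °C; 1 = growth at the plate median or of vehicle wells; lower values mean less growth of the strain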
# Experimental Conditions: S. cerevisiae deletion strains, growth OD, locus YOR061W, strain CKA2, active compounds read low
The whole screen tested about 5,500 compounds, of which about 2,000 (36%) were called active. Roughly 18% stayed inconclusive and do not appear here. The list shows a part of the results.
Below: a set of entries, each annotated with reported normalized growth.
Readout Kind: normalized growth

Molecule	Test Value
CCOC(=O)C1C(c2c(F)cccc2Cl)C(C(=O)OCC)C(O)(C(F)(F)F)NC1(O)C(F)(F)F (stereo unspecified)	0.996
N#C/C(=N/Nc1ccc(F)cc1)S(=O)(=O)c1ccc(Cl)cc1	0.979
CC(=O)/C(C#N)=N\Nc1ccc(F)cc1	0.127
Cn1c(=O)c2c(ncn2CC(O)CO)n(C)c1=O (stereo unspecified)	1
O=C(Oc1cc(O)cc2c1C[C@@H](OC(=O)c1cc(O)c(O)c(O)c1)[C@@H](c1cc(O)c(O)c(O)c1)O2)c1cc(O)c(O)c(O)c1	0.218
Cc1ncc(CNC(=O)N(CCCl)N=O)c(N)n1	1.02
CC(C)(C)c1ccc(N/N=C(\C#N)C(N)=O)cc1	0.092
O=C(O[C@@H]1Cc2c(O)cc(O)cc2O[C@@H]1c1cc(O)c(O)c(O)c1)c1cc(O)c(O)c(O)c1	0.484
N#C/C(=N/Nc1ccc(F)cc1)C(=O)c1ccccc1	0.849
COc1ccc2c(c1)OC1(O)COc3cc(OC)c(OC)cc3C1=C2 (stereo unspecified)	1.01
N#C/C(=N/Nc1ccccc1)C(=O)c1ccccc1OC(F)(F)F	0.885

###

Below: a set of entries, each annotated with reported normalized growth.
# Protocol Text: chemical genetic growth profiling, strain panel (AID 1159580);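 also: tested at 20 µM; growth read once vehicle control cultures reached saturation at 30 °C; 1 = growth at the plate median or of vehicle wells; lower values mean less growth of the strain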
# Experimental Conditions: S. cerevisiae deletion strains, growth OD, locus YLR039C, strain RIC1, active compounds read low
About 2,000 (36%) of roughly 5,500 compounds were called active. About 18% were inconclusive and are not listed. Some of the results follow.
Readout Kind: normalized growth

Compound	Test Value
c1ccc2c(c1)sc1ccccc12	0.735
CC(=O)Oc1cc(OC(C)=O)c2c(c1)O[C@H](c1ccc(OC(C)=O)c(OC(C)=O)c1)[C@H](OC(C)=O)C2	1.09
COc1cc([C@@H]2c3cc4c(cc3C(OC3O[C@@H]5COC(C)O[C@H]5[C@H](O)[C@H]3O)C3COC(=O)[C@@H]32)OCO4)cc(OC)c1O (stereo partly specified)	1.01
CN(C)CCN(Cc1cccs1)c1ccccn1	1.03
COc1ccc2c(c1)OC/C(=C\c1ccc(OC)c(O)c1)C2=O	0.51
O=C1C(Cl)=C(Cl)C(=O)C(Cl)=C1Cl	0.275
O=C(Oc1cc(O)cc2c1C[C@@H](OC(=O)c1cc(O)c(O)c(O)c1)[C@@H](c1cc(O)c(O)c(O)c1)O2)c1cc(O)c(O)c(O)c1	0.233
O=C(O)CCCc1ccc(N(CCCl)CCCl)cc1	0.974
Cc1[nH]c2ccccc2c1CN(C)C	1.1
CN1CC(CO)=C[C@@H]2c3cccc4[nH]cc(c34)C[C@H]21	0.954
CC(=O)Oc1cc(OC(C)=O)c2c(c1)O[C@H](c1ccc(OC(C)=O)c(OC(C)=O)c1)[C@@H](OC(C)=O)C2	1.04
CN(C)CCN(Cc1ccccc1)c1ccccn1	0.966
COc1cc(OC)c2c(c1)O[C@H](c1cc(OC)c(OC)c(OC)c1)[C@H](OC(=O)c1cc(OC)c(OC)c(OC)c1)C2	1.01
COc1c(Br)cc([N+](=O)[O-])c(OC)c1C(N)=O	1.02
NCCc1cnc[nH]1	1.05
O=C(O[C@@H]1Cc2c(O)cc(O)cc2O[C@@H]1c1cc(O)c(O)c(O)c1)c1cc(O)c(O)c(O)c1	0.331
C=C1C2CC[C@@]3(C)[C@H](c4ccoc4)OC(=O)C[C@]13O[C@H]1CC(=O)C(C)(C)[C@H](C(OC(C)=O)C(=O)OC)[C@@]21C (stereo partly specified)	0.917
C#CCN(C)Cc1ccccc1	1.02
O=C(O)CSCc1ccccc1	1.07
O=C(O)CCCc1ccccc1	1.01
COc1ccc2c(c1)OC/C(=C/c1ccc(OC)c(OC)c1)C2=O	0.727
